// provenance: patent US20130072517A1

Experiment: Clinical Study #2: plasma pharmacokinetics of dextromethorphan, dextrorphan and quinidine, single and multiple dose
Conditions: human, in vivo, Cmax (plasma), mean, Day 8; EM; 30 mg DM HBr/25 mg Q sulfate capsule every 12 hours
For each entry below, report its Cmax value.

>  <compound>
COc1ccc2c(c1)[C@]13CCCCC1[C@H](C2)N(C)CC3 (single isomer, unassigned; (+)) [Dextromethorphan, (+)-3-methoxy-N-methylmorphinan]

>  <Cmax>
95.5 ng/mL

$$$$

Proceeding to the next compound to report its Cmax.
Data request: Could you tell me which Cmax is on file for CN1CC[C@@]23CCCC[C@@H]2[C@@H]1Cc1ccc(O)cc13 ?
Data returned: 124 ng/mL
